B1: glmS ribozyme (parent)
chain: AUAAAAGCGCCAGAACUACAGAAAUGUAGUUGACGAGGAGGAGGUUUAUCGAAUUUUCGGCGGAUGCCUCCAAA

Variants of: B1
assay details: self-cleavage kobs at 160 uM GlcN6P; higher = faster cleavage; RNA array
reported conditions: with glucosamine-6-phosphate
This sample holds only a part of the variants without activity.
value kind: self-cleavage kobs at 160 uM GlcN6P (s⁻¹)

mutant | value kind | uom | limit qualifier | obs value
U56C G60U | self-cleavage kobs at 160 uM GlcN6P | s⁻¹ | < | 1e-05
U46A G51C A52G | self-cleavage kobs at 160 uM GlcN6P | s⁻¹ | < | 1e-05
A36G A52U | self-cleavage kobs at 160 uM GlcN6P | s⁻¹ | < | 1e-05
G38C G44U C50U | self-cleavage kobs at 160 uM GlcN6P | s⁻¹ | < | 1e-05
A52U G63C | self-cleavage kobs at 160 uM GlcN6P | s⁻¹ | < | 1e-05
U49C A53C | self-cleavage kobs at 160 uM GlcN6P | s⁻¹ | < | 1e-05
A14G U54C G60C A64G C70G | self-cleavage kobs at 160 uM GlcN6P | s⁻¹ | < | 1e-05
C8U A39C | self-cleavage kobs at 160 uM GlcN6P | s⁻¹ | < | 1e-05
A14U G35C A42C | self-cleavage kobs at 160 uM GlcN6P | s⁻¹ | < | 1e-05
A12C U46G | self-cleavage kobs at 160 uM GlcN6P | s⁻¹ | = | 0.000221
A12G G32A C67G C68U | self-cleavage kobs at 160 uM GlcN6P | s⁻¹ | = | 0.000534
G38U U54C | self-cleavage kobs at 160 uM GlcN6P | s⁻¹ | < | 1e-05
C16A G35C U47G | self-cleavage kobs at 160 uM GlcN6P | s⁻¹ | < | 1e-05
U31G G41A | self-cleavage kobs at 160 uM GlcN6P | s⁻¹ | = | 7.06e-05
U30G G60A | self-cleavage kobs at 160 uM GlcN6P | s⁻¹ | < | 1e-05
U30C U46G U54A | self-cleavage kobs at 160 uM GlcN6P | s⁻¹ | < | 1e-05
A12C G43C | self-cleavage kobs at 160 uM GlcN6P | s⁻¹ | < | 1e-05
U30A C50G | self-cleavage kobs at 160 uM GlcN6P | s⁻¹ | = | 6.28e-05
C8G G35A | self-cleavage kobs at 160 uM GlcN6P | s⁻¹ | < | 1e-05
A15U U30G U46G C67G | self-cleavage kobs at 160 uM GlcN6P | s⁻¹ | = | 5.03e-05
A52C U65A | self-cleavage kobs at 160 uM GlcN6P | s⁻¹ | < | 1e-05
G40C A53U C70U | self-cleavage kobs at 160 uM GlcN6P | s⁻¹ | = | 9.81e-05
G32U C34U | self-cleavage kobs at 160 uM GlcN6P | s⁻¹ | < | 1e-05
G9A C11A G35A U47C C68A | self-cleavage kobs at 160 uM GlcN6P | s⁻¹ | < | 1e-05
A39U U46C | self-cleavage kobs at 160 uM GlcN6P | s⁻¹ | = | 0.000743
A15G G63A | self-cleavage kobs at 160 uM GlcN6P | s⁻¹ | < | 1e-05
G13C A14C G51A G66U | self-cleavage kobs at 160 uM GlcN6P | s⁻¹ | < | 1e-05
A12U C70G | self-cleavage kobs at 160 uM GlcN6P | s⁻¹ | = | 0.000175
G29A U46G | self-cleavage kobs at 160 uM GlcN6P | s⁻¹ | = | 5.62e-05
G35U A42G | self-cleavage kobs at 160 uM GlcN6P | s⁻¹ | < | 1e-05
G41A G51U | self-cleavage kobs at 160 uM GlcN6P | s⁻¹ | < | 1e-05
G13A A14G | self-cleavage kobs at 160 uM GlcN6P | s⁻¹ | = | 7.81e-05
A15U G40C | self-cleavage kobs at 160 uM GlcN6P | s⁻¹ | = | 3.7e-05
C50G G59A | self-cleavage kobs at 160 uM GlcN6P | s⁻¹ | = | 8.57e-05
U45A U65C | self-cleavage kobs at 160 uM GlcN6P | s⁻¹ | = | 0.000318
A14U U65A | self-cleavage kobs at 160 uM GlcN6P | s⁻¹ | = | 4.54e-05
C11G G43A | self-cleavage kobs at 160 uM GlcN6P | s⁻¹ | < | 1e-05
C11A G43U | self-cleavage kobs at 160 uM GlcN6P | s⁻¹ | < | 1e-05
C58A C68G | self-cleavage kobs at 160 uM GlcN6P | s⁻¹ | = | 4.34e-05
U54A C68G | self-cleavage kobs at 160 uM GlcN6P | s⁻¹ | = | 8.95e-05
U54C U56A G59C U65A | self-cleavage kobs at 160 uM GlcN6P | s⁻¹ | < | 1e-05
U30G U54G U56G | self-cleavage kobs at 160 uM GlcN6P | s⁻¹ | = | 0.00021
C10U A12G U31A A36C C58A | self-cleavage kobs at 160 uM GlcN6P | s⁻¹ | < | 1e-05
A42U G66C | self-cleavage kobs at 160 uM GlcN6P | s⁻¹ | < | 1e-05
C8U C10A C50G | self-cleavage kobs at 160 uM GlcN6P | s⁻¹ | = | 0.000179
A15G U31C | self-cleavage kobs at 160 uM GlcN6P | s⁻¹ | = | 0.00035
G7C G43U | self-cleavage kobs at 160 uM GlcN6P | s⁻¹ | < | 1e-05
